All values here come from PubChem BioAssay (NCI).

- Test system: HL-60(TB) leukemia
- assay-info: NCI-60 one-dose screen, 48 h
- protocol-conditions: 10 µM unless noted
The panel holds about 83,000 compounds, 20% with a hit somewhere; the sample as a whole holds those more often. Calls of active or inactive are those of the source. Rule for the calls: active = growth percent below 10; inactive = the rest.
Mark one answer only. Choices: active, inactive

Example entries and their recorded answers appear below.
Q: Answer briefly: the call reported for `CCCCCCCCCCCCCC1=NCCN1CCO` in this assay.
A: active

Q: Answer briefly: the call reported for `CN1CCN(Cc2ccc(NC(=O)c3cccc(C#Cc4cnc(N)c5ncccc45)c3F)cc2C(F)(F)F)CC1` in this assay.
A: inactive

Q: Answer briefly: the call reported for `COc1ccc(-n2cc(-c3ccccc3)c3c(SCC(=O)N/N=C/c4ccc([N+](=O)[O-])cc4)ncnc32)cc1` in this assay.
A: inactive

Q: Answer briefly: the call reported for `Cc1ccc(N)cc1F` in this assay.
A: inactive

Q: Answer briefly: the call reported for `C[C@@H](C[C@H](CCO)c1ccccc1)c1ccc2ccccc2c1` in this assay.
A: active

Q: Answer briefly: the call reported for `COc1cc(-c2nccc3[nH]c(-c4ccc5cc[nH]c5c4)nc23)cc(OC)c1OC` in this assay.
A: active

Q: Answer briefly: the call reported for `C=C(C)[C@@H]1CC[C@]2(C)CC[C@]3(C)[C@H](CC[C@@H]4[C@@]5(C)CCCNC(C)(C)[C@@H]5CC[C@]43C)[C@@H]12` in this assay.
A: inactive

Q: Answer briefly: the call reported for `O=c1c2ccccc2oc2ccc(OCCCCCCN3CCCCCC3)cc12` in this assay.
A: active

---
Q: Answer briefly: the call reported for `CS(=O)(=O)c1ccc(C(=O)N/N=C/c2cccc3ccccc23)cc1` in this assay.
A: inactive

Q: Answer briefly: the call reported for `CN(CCC#N)c1ccc(/C=C2\NC(=O)NC2=O)cc1` in this assay.
A: inactive

Q: Answer briefly: the call reported for CC[C@H](C)[C@@H]1NC(=O)[C@H]([C@@H](C)O)NC(=O)C(Cc2ccccc2)NC(=O)[C@@H]2CCCN2C(=O)C(C(C)C)NC(=O)C(Cc2ccccc2)NC(=O)CNC(=O)[C@@H]2CCCN2C1=O (some centres undefined) in this assay.
A: active

Q: Answer briefly: the call reported for `COc1cc2oc(-c3cccc(C(=O)Nc4ccc(Br)cc4)c3)cc(=O)c2c(OC)c1OC` in this assay.
A: inactive

Q: Answer briefly: the call reported for `CC1(C)NC(=S)NC1=O` in this assay.
A: inactive

Q: Answer briefly: the call reported for CCOC(=O)CC1C(CNC(=O)NC)OC(n2cnc3c(NC(=O)Nc4ccccc4)ncnc32)C1O[Si](C)(C)C(C)(C)C (centres undefined) in this assay.
A: inactive

Q: Answer briefly: the call reported for `COC(=O)/C=C1\S/C(=N\NC(=O)c2cc3ccc2/C=C\c2ccc(cc2)/C=C\3)N(Cc2ccccc2)C1=O` in this assay.
A: active
